Entry source: patent US12612409B2

assayed-system: CFTR in F508del/F508del primary CF hBE cells (Homo sapiens, UniProt P13569, DEL508-508)
Construct: Primary cystic fibrosis human bronchial epithelial (CF hBE) cells were expanded and cultured; endogenous in cells
Sequence (P13569 with tags, fused parts or gaps DEL508-508): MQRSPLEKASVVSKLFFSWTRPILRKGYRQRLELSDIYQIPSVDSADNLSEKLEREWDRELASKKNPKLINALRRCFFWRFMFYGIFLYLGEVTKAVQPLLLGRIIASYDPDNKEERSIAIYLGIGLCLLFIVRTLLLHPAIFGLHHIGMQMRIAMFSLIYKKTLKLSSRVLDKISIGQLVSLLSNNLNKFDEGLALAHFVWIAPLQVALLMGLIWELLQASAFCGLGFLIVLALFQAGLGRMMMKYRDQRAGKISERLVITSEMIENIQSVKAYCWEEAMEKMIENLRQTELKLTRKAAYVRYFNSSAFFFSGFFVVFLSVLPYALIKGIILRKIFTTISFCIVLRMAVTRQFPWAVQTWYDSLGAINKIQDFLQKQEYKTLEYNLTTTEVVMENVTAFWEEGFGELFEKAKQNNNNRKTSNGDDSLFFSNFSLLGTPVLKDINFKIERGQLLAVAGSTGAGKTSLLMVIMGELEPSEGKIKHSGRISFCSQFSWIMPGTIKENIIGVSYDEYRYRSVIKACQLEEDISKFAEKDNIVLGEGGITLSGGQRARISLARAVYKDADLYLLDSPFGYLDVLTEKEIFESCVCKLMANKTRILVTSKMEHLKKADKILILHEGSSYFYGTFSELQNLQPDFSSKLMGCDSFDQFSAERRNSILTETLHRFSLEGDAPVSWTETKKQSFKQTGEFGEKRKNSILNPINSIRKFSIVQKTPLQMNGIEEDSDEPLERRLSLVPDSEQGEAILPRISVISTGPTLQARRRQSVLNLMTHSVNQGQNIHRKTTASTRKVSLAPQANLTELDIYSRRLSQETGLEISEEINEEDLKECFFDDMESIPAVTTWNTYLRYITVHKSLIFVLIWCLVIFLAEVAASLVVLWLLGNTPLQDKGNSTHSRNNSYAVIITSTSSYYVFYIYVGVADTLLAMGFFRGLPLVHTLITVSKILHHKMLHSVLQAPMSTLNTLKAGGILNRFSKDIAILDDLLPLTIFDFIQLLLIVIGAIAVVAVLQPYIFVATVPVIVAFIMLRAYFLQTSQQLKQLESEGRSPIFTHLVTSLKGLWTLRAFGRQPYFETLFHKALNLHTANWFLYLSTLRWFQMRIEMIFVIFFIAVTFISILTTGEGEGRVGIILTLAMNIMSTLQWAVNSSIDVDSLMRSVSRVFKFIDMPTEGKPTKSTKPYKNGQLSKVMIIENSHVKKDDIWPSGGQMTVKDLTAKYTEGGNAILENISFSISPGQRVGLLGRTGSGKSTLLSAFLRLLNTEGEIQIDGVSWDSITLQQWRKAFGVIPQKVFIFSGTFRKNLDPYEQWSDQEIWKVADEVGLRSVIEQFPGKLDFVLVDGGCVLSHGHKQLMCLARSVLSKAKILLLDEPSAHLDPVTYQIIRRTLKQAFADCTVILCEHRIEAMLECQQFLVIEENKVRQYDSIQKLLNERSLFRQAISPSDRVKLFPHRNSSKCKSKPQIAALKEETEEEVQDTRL
test-details: Ussing chamber electrophysiology assay of CFTR potentiation in F508del/F508del CF bronchial epithelial cells (27° C.)
pEC50: −log10 of the molar value.
value-type: pEC50

# compound, pEC50
records = [
    ("COc1cc(C#N)ccc1-c1cn(Cc2cn(-c3ccccc3F)nn2)c2ncnc(N)c12", 6.82),
]

(a) COc1ccc(-c2c(C)n(Cc3cn(-c4ccc(F)cc4F)nn3)c3ncnc(N)c23)cn1
(b) CC(c1cc(-c2ccccc2F)no1)n1cc(-c2ccc(N(C)C)cc2)c2c(N)ncnc21 (stereo not drawn)
Task for the reader: decide whether a or b has the larger pEC50. Bench note: the answer is the label of the chosen record.
b
